# Tested on: dopamine (DA) reuptake in synaptosomes
# assay_summary: Inhibition of DA reuptake in synaptosomes
# Assay type: biochemical
# condition_label: 3H-DA, read-out: DA-uptake IC50
Kindly supply the reported IC50 values for the records listed here.
Numbers only, in nM.

CCN(C(=O)CCCC1CCNCC1)c1ccc(Cl)c(Cl)c1; 12

Next item in the queue.
Q: Report IC50 for CCN(C(=O)CCCC1CCN(C)CC1)c1ccc(Cl)c(Cl)c1 please.
A: 6.9
